Reported abundance fitness values are given for each entry in this list.
B1: Formin-binding protein 4, residues 200 to 261; numbered along this chain, Q8N3X1 (parent)
chain: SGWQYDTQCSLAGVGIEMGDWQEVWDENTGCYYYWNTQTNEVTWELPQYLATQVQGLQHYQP

variants of: B1; assay: abundance fitness (aPCA) (normalised: wild type 0, dead -1); higher = more abundant; growth selection in yeast, the domain comes from the species named; details: Homo sapiens

Before answering, review these 6 worked examples.
sequence_string="SGWQYDTQCSLAGVGINMGDWQEVWDENTGCYYYWNTQTNEVTWELPQYLATQVQGLQHYQP [E17N]" reported_measurement=-0.34
sequence_string="SGWQYDTQCSLAGVGIEMGDWQEVWDENTGCYYYWNTQTNEVTWELPQYLAKQVQGLQHYQP [T52K]" reported_measurement=0.335
sequence_string="SGGQYDTQCSLAGVGIEMGDWQEVWDENTGCYYYWNTQTNEVTWELPQYLATQVQGLQHYQP [W3G]" reported_measurement=-0.275
sequence_string="SGWQYDTQCSLAGVGIEMGDWQEVWDENTGCYYYWNTQTNEVTWELPQILATQVQGLQHYQP [Y49I]" reported_measurement=0.081
sequence_string="SHWQYDTQCSLAGVGIEMGDWQEVWDENTGCYYYWNTQTNEVTWELPQYLATQVQGLQHYQP [G2H]" reported_measurement=0.607
sequence_string="SGWQYETQCSLAGVGIEMGDWQEVWDENTGCYYYWNTQTNEVTWELPQYLATQVQGLQHYQP [D6E]" reported_measurement=-0.135

Problem: Look at this variant and give its reported abundance fitness. SGWQYDTQCSLAGVGIEMGDWQEVWDENTGCYYEWNTQTNEVTWELPQYLATQVQGLQHYQP [Y34E]
Result: -0.791

Problem: Request: SGWQYDTQCSLAGVGIEMGDWQEVWCENTGCYYYWNTQTNEVTWELPQYLATQVQGLQHYQP [D26C]
Result: -0.228

Problem: Same read-out for SGWQYDTQCSLAGVGIFMGDWQEVWDENTGCYYYWNTQTNEVTWELPQYLATQVQGLQHYQP [E17F] ?
Result: -0.263

Problem: Next variant: SGWQYDTQCSLARVGIEMGDWQEVWDENTGCYYYWNTQTNEVTWELPQYLATQVQGLQHYQP [G13R]
Result: -0.194

Problem: How about this variant: SGWQYDTQCSLACVGIEMGDWQEVWDENTGCYYYWNTQTNEVTWELPQYLATQVQGLQHYQP [G13C]
Result: -0.103
